Assay: Thermal stability measurement (TG/DTA weight reduction temperature)
Conditions: TG/DTA, air 200 mL/min, 10° C./min, 30° C. to 600° C.
Property: Weight reduction temperature 10% (°C)
Provide only the numeric value, understood in °C.

Consider the compound shown here: CCCCCCCCCCCCCCCCCCN1CCCC1.O=S(=O)(NS(=O)(=O)C(F)(F)C(F)(F)C(F)(F)C(F)(F)F)C(F)(F)C(F)(F)C(F)(F)C(F)(F)F What is its recorded Weight reduction temperature 10%?
334.4

Consider the compound shown here: CCCCCCCCCCCCCCCCCCn1cc[n+](CCCCC[n+]2ccn(CCCCCCCCCCCCCCCCCC)c2)c1.O=S(=O)([N-]S(=O)(=O)C(F)(F)C(F)(F)C(F)(F)C(F)(F)F)C(F)(F)C(F)(F)C(F)(F)C(F)(F)F.O=S(=O)([N-]S(=O)(=O)C(F)(F)C(F)(F)C(F)(F)C(F)(F)F)C(F)(F)C(F)(F)C(F)(F)C(F)(F)F What is its recorded Weight reduction temperature 10%?
384.4

Consider the compound shown here: CCCCCCCCCCCCCCCCCC[n+]1ccn(CCC(F)(F)C(F)(F)C(F)(F)C(F)(F)C(F)(F)C(F)(F)C(F)(F)C(F)(F)F)c1.O=S(=O)([N-]S(=O)(=O)C(F)(F)C(F)(F)C(F)(F)C(F)(F)F)C(F)(F)C(F)(F)C(F)(F)C(F)(F)F What is its recorded Weight reduction temperature 10%?
358.5

Consider the compound shown here: CCCCCCCCCCCCCCCCCC[N+]1=C2CCCCCN2CCC1.O=S(=O)([O-])C(F)(F)F What is its recorded Weight reduction temperature 10%?
346.6

Consider the compound shown here: CCCCCCCCCCCCCCCCCC[N+]1(CCCC)CCCC1.O=S(=O)([N-]S(=O)(=O)C(F)(F)C(F)(F)C(F)(F)C(F)(F)F)C(F)(F)C(F)(F)C(F)(F)C(F)(F)F What is its recorded Weight reduction temperature 10%?
360.2

----------
Hi there, I'd appreciate the recorded Weight reduction temperature 20% for every entry that follows.
Assay: Thermal stability measurement (TG/DTA weight reduction temperature)
Conditions: TG/DTA, air 200 mL/min, 10° C./min, 30° C. to 600° C.
Provide only the numeric value, understood in °C.

Consider the compound shown here: CCCCCCCCCCCCCCCCCCN1CCCC1.O=S(=O)(NS(=O)(=O)C(F)(F)C(F)(F)C(F)(F)C(F)(F)F)C(F)(F)C(F)(F)C(F)(F)C(F)(F)F [Ex. 5A] What is its recorded Weight reduction temperature 20%?
355.5

Consider the compound shown here: CCCCCCCCCCCCCCCCCCC1CCCCN2CCCN=C12.O=S(=O)(NS(=O)(=O)C(F)(F)C(F)(F)C(F)(F)C(F)(F)F)C(F)(F)C(F)(F)C(F)(F)C(F)(F)F What is its recorded Weight reduction temperature 20%?
396.7

Consider the compound shown here: CCCCCCCCCCCCCCCCCCC1CCCCN2CCCN=C12.O=S1(=O)NS(=O)(=O)C(F)(F)C(F)(F)C1(F)F (stereo not drawn) [Comp. Ex. 1A, reference compound] What is its recorded Weight reduction temperature 20%?
414.0

----------
Experiment: Solubility test of ionic liquid in fluorine-based solvent VERTREL XF
Conditions: VERTREL XF [CF3(CHF)2CF2CF3], 25° C., ultrasonic 5 minutes, left 1 day, visual
Property: Solubility to fluorine-based solvent

Observe how each entry below is paired with its result.
- Molecule: "CCCCCCCCCCCCCCCCCCC1CCCCN2CCCN=C12.O=S1(=O)NS(=O)(=O)C(F)(F)C(F)(F)C1(F)F (stereo not drawn) [Comp. Ex. 1A, reference compound]"
  Property: "Solubility to fluorine-based solvent"
  Value: "less than 0.1% by mass"
- Molecule: "CCCCCCCCCCCCCCCCCC[N+]1(CCCC)CCCC1.O=S(=O)([N-]S(=O)(=O)C(F)(F)C(F)(F)C(F)(F)C(F)(F)F)C(F)(F)C(F)(F)C(F)(F)C(F)(F)F [Ex. 4A]"
  Property: "Solubility to fluorine-based solvent"
  Value: "0.5% by mass or greater"
- Molecule: "CCCCCCCCCCCCCCCCCCn1cc[n+](CCC[n+]2ccn(CCCCCCCCCCCCCCCCCC)c2)c1.O=S(=O)([N-]S(=O)(=O)C(F)(F)C(F)(F)C(F)(F)C(F)(F)F)C(F)(F)C(F)(F)C(F)(F)C(F)(F)F.O=S(=O)([N-]S(=O)(=O)C(F)(F)C(F)(F)C(F)(F)C(F)(F)F)C(F)(F)C(F)(F)C(F)(F)C(F)(F)F [Ex. 11A]"
  Property: "Solubility to fluorine-based solvent"
  Value: "0.5% by mass or greater"
- Molecule: "CCCCCCCCCCCCCCCCCCN1CCCC1.O=S(=O)(NS(=O)(=O)C(F)(F)C(F)(F)C(F)(F)C(F)(F)F)C(F)(F)C(F)(F)C(F)(F)C(F)(F)F [Ex. 5A]"
  Property: "Solubility to fluorine-based solvent"
  Value: "0.5% by mass or greater"
- Molecule: "CCCCCCCCCCCCCCCCCCn1cc[n+](CCCCC[n+]2ccn(CCCCCCCCCCCCCCCCCC)c2)c1.O=S(=O)([N-]S(=O)(=O)C(F)(F)C(F)(F)C(F)(F)C(F)(F)F)C(F)(F)C(F)(F)C(F)(F)C(F)(F)F.O=S(=O)([N-]S(=O)(=O)C(F)(F)C(F)(F)C(F)(F)C(F)(F)F)C(F)(F)C(F)(F)C(F)(F)C(F)(F)F [Comp. Ex. 9A, reference compound]"
  Property: "Solubility to fluorine-based solvent"
  Value: "less than 0.1% by mass"

# ---- query molecule ----
Consider the molecule shown here: CCCCCCCCCCCCCCCCCC[N+]1=C2CCCCCN2CCC1.O=S(=O)([N-]S(=O)(=O)C(F)(F)C(F)(F)C(F)(F)C(F)(F)F)C(F)(F)C(F)(F)C(F)(F)C(F)(F)F [Ex. 2A] What is its recorded Solubility to fluorine-based solvent?
0.5% by mass or greater
